Value source: patent US20210388087A1

ASSAY_SYSTEM: T1, Human CD3eg linker (human)
T1 construct: single-chain construct; also called recombinant human CD3
T1 chain: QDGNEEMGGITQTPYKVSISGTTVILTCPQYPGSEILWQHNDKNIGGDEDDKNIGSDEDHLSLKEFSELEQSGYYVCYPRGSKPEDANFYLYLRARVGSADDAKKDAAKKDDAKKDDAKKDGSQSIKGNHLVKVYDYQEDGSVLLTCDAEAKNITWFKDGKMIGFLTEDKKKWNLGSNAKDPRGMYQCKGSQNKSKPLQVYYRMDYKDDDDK
EXPERIMENT_NOTES: SPR, vs unmutated H183/L072
OBSERVED_PROPERTY: fold change of affinity (fold)
Kindly answer with a numeric value in fold, unit omitted.

Illustrative cases are given below, each with its answer.
BINDER	UOM	fold change of affinity
dBBDu183H P100eW/dBBDu072L (antibody, name in Kabat numbering, V domains shown) VH: QVQLVESGGGLVQPGRSLRLSCAASGFTFSNAWMHWVRQAPGKGLEWVAQIKDKGNAYAAYYAPSVKGRFTISRDDSKNSIYLQMNSLKTEDTAVYYCHYVHYASASTVLWAFGVDAWGQGTTVTVSS VL: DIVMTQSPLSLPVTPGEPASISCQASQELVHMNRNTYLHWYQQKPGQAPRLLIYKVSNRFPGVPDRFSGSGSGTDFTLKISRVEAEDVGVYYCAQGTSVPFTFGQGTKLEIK	fold	1.7
dBBDu183H A98Q/dBBDu072L (antibody, name in Kabat numbering, V domains shown) VH: QVQLVESGGGLVQPGRSLRLSCAASGFTFSNAWMHWVRQAPGKGLEWVAQIKDKGNAYAAYYAPSVKGRFTISRDDSKNSIYLQMNSLKTEDTAVYYCHYVHYQSASTVLPAFGVDAWGQGTTVTVSS VL: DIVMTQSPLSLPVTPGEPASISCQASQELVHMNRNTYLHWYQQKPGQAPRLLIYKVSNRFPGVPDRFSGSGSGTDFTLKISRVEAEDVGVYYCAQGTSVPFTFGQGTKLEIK	fold	0.7

Problem: Provide measured fold change of affinity value, entry: dBBDu183H S100aR/dBBDu072L (antibody, name in Kabat numbering, V domains shown) VH: QVQLVESGGGLVQPGRSLRLSCAASGFTFSNAWMHWVRQAPGKGLEWVAQIKDKGNAYAAYYAPSVKGRFTISRDDSKNSIYLQMNSLKTEDTAVYYCHYVHYASARTVLPAFGVDAWGQGTTVTVSS VL: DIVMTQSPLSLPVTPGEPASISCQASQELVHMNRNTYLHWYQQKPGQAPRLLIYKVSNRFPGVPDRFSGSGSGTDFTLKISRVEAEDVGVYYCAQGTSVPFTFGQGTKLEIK
Result: 0.6
